Source listed as patent US7863332B2.

target-or-system: PPARα (Homo sapiens)
Sequence (Q07869 202-468 limits assumed): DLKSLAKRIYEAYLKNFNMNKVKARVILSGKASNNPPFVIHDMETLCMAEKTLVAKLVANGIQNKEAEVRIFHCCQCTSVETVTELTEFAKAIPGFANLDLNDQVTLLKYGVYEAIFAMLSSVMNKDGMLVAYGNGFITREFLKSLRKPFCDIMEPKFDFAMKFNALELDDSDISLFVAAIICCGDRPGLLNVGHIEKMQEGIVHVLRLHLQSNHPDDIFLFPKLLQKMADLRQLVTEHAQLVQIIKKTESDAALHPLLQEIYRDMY
procedure-details: Cross-curve PPAR transactivation test (PPARα)
condition-notes: HeLN cells, Gal-hPPARα, luciferase reporter; cross curves against reference agonist, Schild regression; n.a means not active; read-out: PPAR alpha Kd app
observable: Kd
A bare number is not enough; add the unit after it.

CCCCCCCNC(=O)N(C)c1cccc(-c2ccc(CCC(=O)O)cc2OCCCC(F)(F)F)c1 | 0.25 µM
CCCCCCCNC(=O)N(C)c1cccc(-c2ccc(CCC(=O)O)c(F)c2)c1 | 2 µM

Query :: Please report the recorded Kd for CCCCCCCNC(=O)N(C)c1cccc(-c2ccc(CCC(=O)O)cc2OCc2ccccc2)c1 .
Result :: 4 µM

Query :: Please report the recorded Kd for CCCCCCCNC(=O)N(C)c1cccc(-c2ccc(CCC(=O)O)cc2OCc2cccc(F)c2)c1 .
Result :: 2 µM

Query :: Please report the recorded Kd for CCCCCCCNC(=O)N(C)c1cccc(-c2ccc(/C=C/C(=O)O)cc2OCc2ccccc2)c1 .
Result :: 0.5 µM

Query :: Please report the recorded Kd for CCCCCCCNC(=O)N(C)c1cccc(-c2ccc(CCC(=O)O)cc2OCCCC)c1 .
Result :: 0.25 µM

Query :: Please report the recorded Kd for CCCCOc1cc(CCC(=O)O)ccc1-c1cccc(N(C)C(=O)Nc2ccccc2)c1 .
Result :: 2 µM

Query :: Please report the recorded Kd for CCCCc1ccc(NC(=O)N(C)c2cccc(-c3ccc(CCC(=O)O)cc3)c2)cc1 .
Result :: 0.5 µM

---

The reader will find reported melting point values listed item by item below.

Study these solved cases before continuing.
CCCCCCCNC(=O)N(C)c1cccc(-c2ccc(CCC(=O)NO)cc2)c1 [Example 6] | 100 to 101 °C
CCCCCCCNC(=O)N(C)c1cccc(-c2ccc(CCC(=O)O)cc2)c1 [Example 2] | 101 °C
CN(C(=O)Nc1ccc2ccccc2c1)c1cccc(-c2ccc(CCC(=O)O)cc2)c1 [Example 7] | 170 to 171 °C

Query :: Please report the recorded melting point for CCCCCCCNC(=S)N(C)c1cccc(-c2ccc(CCC(=O)O)cc2)c1 [Example 8] .
Result :: 95 to 96 °C

Query :: Please report the recorded melting point for CCCCCCCNC(=O)N(C)c1cccc(-c2ccc(/C=C/C(=O)O)cc2F)c1 [Example 9] .
Result :: 130 to 131 °C

Query :: Please report the recorded melting point for CCCCCCCNC(=O)N(C)c1cccc(-c2ccc(CCC(=O)O)cc2F)c1 [Example 10] .
Result :: 80 to 82 °C

Query :: Please report the recorded melting point for CN(C(=O)Nc1ccc(OCc2ccccc2)cc1)c1cccc(-c2ccc(CCC(=O)O)cc2)c1 [Example 13] .
Result :: 173.5 to 175 °C

Query :: Please report the recorded melting point for CCCCCCNC(=O)N(C)c1cccc(-c2ccc(CCC(=O)O)cc2)c1 [Example 11] .
Result :: 119 to 120 °C

---

target-or-system: PPARα (Homo sapiens)
procedure-details: Cross-curve PPAR transactivation test (PPARα)
condition-notes: HeLN cells, Gal-hPPARα, luciferase reporter; cross curves against reference agonist, Schild regression; n.a means not active; read-out: PPAR alpha Kd app
The reader will find reported pKd values listed item by item below.
Remember, pKd is on a log scale: it is -log10 of the molar concentration.

Study these solved cases before continuing.
CCCCCCCNC(=O)N(C)c1cccc(-c2ccc(CCC(=O)O)cc2OC)c1 [Example 18] | 5.70
CCCCCCCNC(=O)N(C)c1cccc(-c2ccc(CCC(=O)O)cc2OCc2ccc(F)cc2)c1 [Example 44] | 6.00

Now consider a different compound.
Query :: Which pKd is reported with PPARα (Homo sapiens) for this entry: CCCCCCCNC(=O)N(C)c1cccc(-c2ccc(CCC(=O)O)cc2OCCCCl)c1 [Example 17] ?
Result :: 6.30
